ASSAYED TARGET: T1, hTIM3-Fc WT (human)
T1 construct: also called hTIM-3-hFc
TEST DETAILS: ELISA, construct coated on plate
Attribute: Absorbance at 450 nm
Respond numerically; units are A450 and should not be typed.

Consider the reported Absorbance at 450 nm for these binders:
- BINDER: "mAb22 (antibody, V domains shown, Mouse hybridoma antibody) VH: EVQLVESGGDLVKPGGSLKLSCAASGFTFSNHGMSWVRQTPDKRLEWVATISSGGSNTYFPDSVKGRFTISRDNVKNSLYLQMSSLKSEDTAMYYCARHGTSMIKEWFAYWGQGTLVTVSA VL: DIVMTQSPVTLSVTPGDRVSLSCRASQSIGDYLHWYQQKSHESPRLLIKYASQSISGIPSRFSGSGSGSDFTLNINSVEPEDVGVYYCQHSHSFPPTFGGGTRLEIK"
  Absorbance at 450 nm [A450]: 2.13
- BINDER: "mAb58 (antibody, V domains shown) VH: QIQLVQSGPELKKPGETVKISCKASGYTFTTYGMSWVKQAPGKGLKLMGWINTYSGAPTYADDFKGRFAFSLETSASAAYLQINNLKNEDTATYFCARKPPHYYVNSFDYWGQGTTLTVSS VL: DIVMTQSPATLSVTPGDRVSLSCRASQSISDYLHWYQQKSHESPRLLIKYASQSISGIPSRFSGSGSGSDFTLSINSVEPEDVGVYYCQNGHSFPYTFGGGTKLEIK"
  Absorbance at 450 nm [A450]: 1.39

Consider the record given below.
What the record says about mAb48 (antibody, V domains shown, Mouse hybridoma antibody) VH: QIQLQQSGPELVTPGTSVKISCKASGYTFTDYYINWVKQRPGQGLEWIGWIYPGSGNTKYNEKFKGKATLTVDTSSSIAYMHLSSLTSEDSAVYFCAGDRFDYWGQGTTLTVSS VL: QIVLTQSPAIMSASPGEKVTLTCSASSGVSSSYLYWYQQKPGSSPKLWIYSTSNLASGVPARFSGSGSGTSYSLTISNMETEDAASYFCHQWSNSPYTFGGGTKLEIK : Absorbance at 450 nm is 1.39
